# Tested on: Lolium rigidum (LOLRI)
# Protocol Notes: Herbicidal pre-emergence action, 320 g/ha (Table C2)
# Type: in vivo
# Conditions: visual grading after ca. 3 weeks vs untreated controls
Readout Label: herbicidal effect LOLRI (%)
// units = %; emit number, no label

Take a look at these entries with their results.
1. Cc1nn(C)c(=O)c(Oc2cc(Cl)ccc2Br)c1OC(=O)C(C)C [Example I-092] | 100
2. Cc1nn(C)c(=O)c(Oc2ccc(F)cc2C2CC2)c1O [Example I-033] | 100
3. Cc1nn(C)c(=O)c(Oc2cc(F)ccc2Br)c1O [Example I-026] | 90

In: For the compound shown here, Cc1nn(C)c(=O)c(Oc2cc(Cl)ccc2Cl)c1OC(=O)C(C)C [Example I-095] , give the reported herbicidal effect LOLRI.
Out: 90

In: Entry Cc1nn(C)c(=O)c(Oc2cc(F)ccc2C2CC2)c1O [Example I-046] please
Out: 90

In: Moving on to CC(=O)Oc1c(C)nn(C)c(=O)c1Oc1ccccc1OC(F)(F)F [Example I-029]
Out: 90

In: Same question, CCOC(=O)Oc1c(C)nn(C)c(=O)c1Oc1cc(F)ccc1Br [Example I-088] this time
Out: 90

In: Now give it for Cc1nn(C)c(=O)c(Oc2cc(Cl)ccc2Cl)c1O [Example I-016] too.
Out: 90

In: Input Cc1nn(C)c(=O)c(Oc2cc(Cl)ccc2Br)c1O [Example I-091]
Out: 100

In: And for Cc1nn(C)c(=O)c(Oc2cc(Cl)cc(Cl)c2Cl)c1O [Example I-096] ?
Out: 90
